# assay-target: human Factor Xa (Homo sapiens)
# test-name: In vitro assay for inhibition of Factor Xa (2), fluorogenic assay
# Type: biochemical
# assay-conditions: substrate Rhodamine 110, bis-(CBZ-glycylglycyl-L-arginine amide 10 μM), Ki calculated from IC50
Structures can show the parent of a compound that is named as a salt.
assay-endpoint: Ki

# molecule, Ki
data = [
    ("NCc1cccc(-c2ccc(N3CC[C@H](NS(=O)(=O)c4ccc5cc(Cl)ccc5c4)C3=O)c(F)c2)c1", "< 10 nM"),
    ("N#Cc1ccccc1-c1ccc(N2CC[C@H](NS(=O)(=O)/C=C/c3ccc(Cl)s3)C2=O)nc1", "< 10 nM"),
    ("CN(C)c1ccc2cc(S(=O)(=O)N[C@H]3CCN(c4ccc(-c5ccccc5S(C)(=O)=O)cc4F)C3=O)ccc2c1", "< 1000 nM"),
    ("O=C1[C@@H](NS(=O)(=O)c2ccc3cc(Cl)ccc3c2)CCN1c1ccc(-c2ccc(Cl)s2)cc1F", "< 200 nM"),
    ("O=C1[C@@H](NS(=O)(=O)c2ccc3cc(Cl)ccc3c2)CCN1c1ccc(-c2ncccc2Cl)cc1F", "< 10 nM"),
    ("CN(C)C(=O)c1ccccc1-c1ccc(N2CC[C@H](NS(=O)(=O)/C=C/c3ccc(Cl)s3)C2=O)nc1", "< 20 nM"),
    ("CN(C)C(=O)c1ccc(N2CC[C@H](NS(=O)(=O)c3cc4ccc(Cl)cc4s3)C2=O)c(F)c1", "< 10 nM"),
    ("Cn1cnc(-c2ccc(N3CC[C@H](NS(=O)(=O)c4ccc5cc(Cl)ccc5c4)C3=O)c(F)c2)c1 [Example 84, Formate]", "< 20 nM"),
]

Record Ki for all entries; do not skip any.
1. Cc1noc(C)c1-c1ccc(N2CC[C@H](NS(=O)(=O)c3ccc4cc(Cl)ccc4c3)C2=O)c(F)c1
2. N#Cc1ccc(N2CC[C@H](NS(=O)(=O)c3cc4ccc(Cl)cc4s3)C2=O)c(F)c1
3. O=C1[C@@H](NS(=O)(=O)c2ccc3cc(Cl)ccc3c2)CCN1c1ccc(-c2ccccc2)cc1F
4. CC(C)N(C=O)c1ccc(N2CC[C@H](NS(=O)(=O)/C=C/c3ccc(Cl)s3)C2=O)c(F)c1
5. CSc1ccc(-c2ccc(N3CC[C@H](NS(=O)(=O)c4ccc5cc(Cl)ccc5c4)C3=O)c(F)c2)cn1
6. O=C1[C@@H](NS(=O)(=O)c2ccc3cc(Cl)ccc3c2)CCN1c1ccc(-c2ccsc2)cc1F

Response:
< 20 nM
< 10 nM
< 200 nM
< 10 nM
< 200 nM
< 200 nM

* * *

What pKi was measured for each of the following?
# assay-target: human Factor Xa (Homo sapiens, UniProt P00742)
# Sequence (P00742 235-488 limits assumed): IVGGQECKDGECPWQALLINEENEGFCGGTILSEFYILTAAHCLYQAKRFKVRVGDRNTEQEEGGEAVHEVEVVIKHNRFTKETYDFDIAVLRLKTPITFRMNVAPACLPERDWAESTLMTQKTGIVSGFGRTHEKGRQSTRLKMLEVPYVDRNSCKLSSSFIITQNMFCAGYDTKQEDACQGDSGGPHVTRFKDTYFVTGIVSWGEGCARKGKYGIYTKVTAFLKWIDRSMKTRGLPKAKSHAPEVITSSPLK
# Sequence (P00742 41-179 partner limits assumed): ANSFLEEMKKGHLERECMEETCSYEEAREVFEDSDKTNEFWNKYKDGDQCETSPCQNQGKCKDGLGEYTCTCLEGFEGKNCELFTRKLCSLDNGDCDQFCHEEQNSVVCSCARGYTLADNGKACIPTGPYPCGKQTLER
# test-name: In vitro assay for inhibition of Factor Xa (1), chromogenic assay
# Format: biochemical
# assay-conditions: substrate N-α-benzyloxycarbonyl-D-Arg-Gly-Arg-p-nitroanilide 200 μM, Ki calculated from IC50
pKi: −log10 of the molar value.

# smi, assay-target, assay-result
data = [
    ("Cc1ccc(-c2ccc(N3CC[C@H](NS(=O)(=O)c4ccc5cc(Cl)ccc5c4)C3=O)c(F)c2)o1", "human Factor Xa (Homo sapiens, UniProt P00742)", "> 6.00"),
    ("O=C1[C@@H](NS(=O)(=O)c2ccc3cc(Cl)ccc3c2)CCN1c1ccc(I)cc1F", "human Factor Xa (Homo sapiens, UniProt P00742)", "> 6.70"),
]

As a next step, examine the compound that follows.
Query: Give its pKi value. Item: "Cn1cncc1-c1ccc(N2CC[C@H](NS(=O)(=O)c3ccc4cc(Cl)ccc4c3)C2=O)c(F)c1"
Response: > 8.00

* * *

# assay-target: human Factor Xa (Homo sapiens, UniProt P00742)
# test-name: In vitro assay for inhibition of Factor Xa (2), fluorogenic assay
# Type: biochemical
# assay-conditions: substrate Rhodamine 110, bis-(CBZ-glycylglycyl-L-arginine amide 10 μM), Ki calculated from IC50
pKi: −log10 of the molar value.
assay-endpoint: pKi

# smi, pKi
rows = [
    ("CS(=O)(=O)c1ccccc1-c1ccc(N2CC[C@H](NS(=O)(=O)c3cccc(CN)c3)C2=O)c(F)c1", "> 7.70"),
    ("O=C1[C@H](NS(=O)(=O)c2cc3ccc(Cl)cc3s2)CCN1c1ccc([N+](=O)[O-])cc1F", "> 6.70"),
    ("CS(=O)(=O)c1ccccc1-c1ccc(N2CC[C@H](NS(=O)(=O)c3cc4ncc(Cl)cc4s3)C2=O)c(F)c1", "> 7.70"),
    ("CNS(=O)(=O)c1ccccc1-c1ccc(N2CC[C@H](NS(=O)(=O)/C=C/c3ccc(Cl)s3)C2=O)nc1", "> 8.00"),
]

Record pKi for all entries; do not skip any.
1. N#Cc1ncccc1-c1ccc(N2CC[C@H](NS(=O)(=O)c3ccc4cc(Cl)ccc4c3)C2=O)c(F)c1
2. CS(=O)(=O)c1ccccc1-c1ccc(N2CC[C@H](NS(=O)(=O)c3cc4sc(Cl)cc4s3)C2=O)c(F)c1
3. CC(C)N(C)C(=O)c1ccc(N2CC[C@H](NS(=O)(=O)c3cc4ccc(Cl)cc4s3)C2=O)c(F)c1
4. NC(=O)CN([C@H]1CCN(c2ccc(C(N)=O)cc2F)C1=O)S(=O)(=O)/C=C/c1ccc(Cl)s1
5. CS(=O)(=O)c1ccccc1-c1ccc(N2CC[C@H](N(CCN3CCOCC3)S(=O)(=O)/C=C/c3ccc(Cl)s3)C2=O)c(F)c1

Response:
1. > 8.00
2. > 8.00
3. > 6.00
4. > 8.00
5. > 8.00

Record pKi for all entries; do not skip any.
1. COc1ccc(-c2ccc(N3CC[C@H](NS(=O)(=O)c4ccc5cc(Cl)ccc5c4)C3=O)c(F)c2)cn1
2. CS(=O)(=O)c1ccccc1-c1ccc(N2CC[C@H](NS(=O)(=O)c3ccc(C#N)cc3)C2=O)c(F)c1
3. O=C1[C@@H](NS(=O)(=O)/C=C/c2ccc(Cl)s2)CCN1c1ccc(-c2ccccc2[N+](=O)[O-])cc1F
4. CC(C)(C)OC(=O)CN([C@H]1CCN(c2ccc(-c3ccccc3S(C)(=O)=O)cc2F)C1=O)S(=O)(=O)/C=C/c1ccc(Cl)s1
5. O=C1[C@@H](NS(=O)(=O)c2ccc3cc(Cl)ccc3c2)CCN1c1ccc(-c2cncnc2)cc1F

Response:
1: > 6.70; 2: > 6.00; 3: > 8.00; 4: > 8.00; 5: > 6.70

* * *

What pKi was measured for each of the following?
# assay-target: human Factor Xa (Homo sapiens, UniProt P00742)
# test-name: In vitro assay for inhibition of Factor Xa (2), fluorogenic assay
# Format: biochemical
# assay-conditions: substrate Rhodamine 110, bis-(CBZ-glycylglycyl-L-arginine amide 10 μM), Ki calculated from IC50
pKi: −log10 of the molar value.

As a guide, the following entries are already answered.
# molecule, pKi
data = [
    ("NS(=O)(=O)c1ccccc1-c1ccc(N2CC[C@H](NS(=O)(=O)c3cc4ccc(Cl)cc4s3)C2=O)c(F)c1 [Example 15]", "> 8.00"),
    ("O=C1[C@@H](NS(=O)(=O)c2ccc3cc(Cl)ccc3c2)CCN1c1ccc(-c2cncc(Br)c2)cc1F [Example 61]", "> 6.70"),
    ("CC(C)Oc1ccccc1-c1ccc(N2CC[C@H](NS(=O)(=O)/C=C/c3ccc(Cl)s3)C2=O)nc1 [Example 31]", "> 6.70"),
]

Record pKi for all entries; do not skip any.
1. CC(C)N(C=O)c1ccc(N2CC[C@H](NS(=O)(=O)c3cc4ccc(Cl)cc4s3)C2=O)c(F)c1 [Example 121]
2. CS(=O)(=O)c1ccccc1-c1ccc(N2CC[C@H](N(CC(=O)O)S(=O)(=O)/C=C/c3ccc(Cl)s3)C2=O)nc1 [Example 48]
3. Cc1ccc(-c2ccc(N3CC[C@H](NS(=O)(=O)c4ccc5cc(Cl)ccc5c4)C3=O)c(F)c2)s1 [Example 68]
4. CS(=O)(=O)c1ccccc1-c1ccc(N2CC[C@H](N(CC(N)=O)S(=O)(=O)/C=C/c3ccc(Cl)s3)C2=O)nc1 [Example 43]
5. O=C1[C@@H](NS(=O)(=O)c2ccc3cc(Cl)ccc3c2)CCN1c1ccc(-c2ccncc2)cc1F [Example 55]
6. O=C1[C@@H](NS(=O)(=O)c2ccc(-c3ccc(Cl)s3)s2)CCN1c1ccc(I)cc1F [Example 92]

Response:
["> 7.70", "> 8.00", "> 6.70", "> 8.00", "> 8.00", "> 8.00"]

Record pKi for all entries; do not skip any.
1. CS(=O)(=O)c1ccccc1-c1ccc(N2CC[C@H](NS(=O)(=O)c3c(Cl)sc4ccsc34)C2=O)c(F)c1 [Example 88]
2. CS(=O)(=O)c1ccccc1-c1ccc(N2CC[C@H](NS(=O)(=O)c3ccc(-c4ccc(Cl)s4)s3)C2=O)c(F)c1 [Example 8]
3. O=C1[C@@H](NS(=O)(=O)/C=C/c2ccc(Cl)s2)CCN1c1ccc(-c2ccncc2Cl)cc1F [Example 80]
4. O=C1[C@@H](NS(=O)(=O)CCc2ccc(Cl)s2)CCN1c1ccc(I)cn1 [Example 132]
5. CS(=O)(=O)c1ccccc1-c1ccc(N2CC[C@H](N(CC(N)=O)S(=O)(=O)/C=C/c3ccc(Cl)s3)C2=O)c(F)c1 [Example 46]
6. CS(=O)(=O)c1ccccc1-c1ccc(N2CC[C@H](N(CC(=O)O)S(=O)(=O)/C=C/c3ccc(Cl)s3)C2=O)c(F)c1 [Example 49]

Response:
["> 7.70", "> 8.00", "> 8.00", "> 7.70", "> 8.00", "> 8.00"]
